Below is a list of entries, each paired with its recorded abundance fitness value.
B1: E3 ubiquitin-protein ligase NEDD4, residues 836 to 881; numbered along this chain, P46934 (parent)
chain: EIEQGFLPKGWEVRHAPNGRPFFIDHNTKTTTWEDPRLKIPAHLRG

Variants of: B1
Assay: abundance fitness (aPCA) (normalised: wild type 0, dead -1); higher = more abundant; growth selection in yeast, the domain comes from the species named
Settings: Homo sapiens

residueChange	abundance fitness
K39G	-0.065
N18A	-0.69
F22E	-0.393
H43F	-0.232
K39W	-0.298
A42L	-0.147
N18Q	-1.06
L38Q	-0.091
T32R	-0.648
R37H	-0.268
I40S	0.009
